Where do the numbers come from? From the supplement of paper PMC9170038.

Test system: K4 kissing-loop RNA reporter
assay_procedure: apparent KD of K4 kissing-loop reporter; higher = weaker reporter binding
condition_summary: Eterna round: R107; input ligand: none
measured_parameter: apparent KD of K4 kissing-loop reporter (nM)
Quick note: give the figure in nM, leave out the unit.

// apparent KD of K4 kissing-loop reporter value for AACCACUCGUUACAUCACUAUCGAGUGGAACGAGGACCGGUACGGCCGCCACUCGGUAACAAGCAGUGAUGUUGCUUGUAAGAAU [KL-SSTryp-A (BrourdMod)2 #dotplot2 strengthened] : 307

Recorded result, GGAGGAGAAUAUGAUACCAGCAGAGAGAGAGAGGAAGUAUAGUGAUGUUAUAUGAGAGAAUGCCCUUGGCAGCAUAAGAAGAAGG [SSTheophylB.A] , apparent KD of K4 kissing-loop reporter: 136

apparent KD of K4 kissing-loop reporter reading for AAUAACUAGUAUUUUUUUAAUAAUACAGAUACCAGUGAUAAUAAACACCCUUGGCAGCUGAUCGAGUGAUGUUCGUUUAUUUUAA [JR_SSTheophyA_Sub003] : 64

Record UAAUUUAUGUCUUUAAUAUAAUAAUCAGAUACCAGUGAUUAAUGACACCCUUGGCAGCUGUAUAGAGUGAUGUUCUUAUGCUUAA [JR_ExcTheophyA_Sub010] . Reported apparent KD of K4 kissing-loop reporter: 288

Looking up AACGGCCAGUCGGCCGCCACUCGAUGCAGUGAUGUUGCUAACUUUCUAAAAGAGUGAUGUUCAUGGAGGACCGGGACUAAUGUAA [#29 K4 Tryptophan B Exclusion] , I see its apparent KD of K4 kissing-loop reporter listed as 346

Measured apparent KD of K4 kissing-loop reporter of UUAGCCCUAUAGGGCAAGACCUAUACUGAUACCAGAGGGUAUACCCUCCCUUGGCAGCGGAUCGAGUGAUGUUCGUAAGGUCAUU [AK4.4 SS Theophylline A] : 844

----------
Tested on: K4 kissing-loop RNA reporter;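 further: bound reporter read as fluorescence of individual clusters on recovered sequencing chips by microscopy, with normalized cluster intensities fitted with a binding model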
assay_procedure: apparent KD of K4 kissing-loop reporter; higher = weaker reporter binding
condition_summary: Eterna round: R107; input ligand: FMN 200 uM
measured_parameter: apparent KD of K4 kissing-loop reporter (nM)
# unit: nM | format: bare number

# apparent KD of K4 kissing-loop reporter measured on K4 kissing-loop RNA reporter for item CUGAUGCUGAUGCGGCGGCCGGUGGUCGUGCGAGGACCGGUACGGCCGCCACUCGCGCGAGUGAUGUUCGCGCGUCGUCGUCGUC [First Shot] = 120

Record for AGUUCUUGCCGAAGGAGCGAGGCAGAGUGAUGUUCUGCAGGAGGUCGAAAGACCUCCCUGCCUCAGGUAGGUCGCGGCAUGAACA [Omei KL Arginine B Exc A v1] under target or system K4 kissing-loop RNA reporter: apparent KD of K4 kissing-loop reporter reported as 587

The sequence ACGUAUAUCAGAGGAUAUCGUAUUAAUAUUUUAUCUAUCUAUAUAUGCAGUGAUGUUGCAAUAAUUCGAGAAGGCUGAUUUACGA [JR_ExcFMNB_Sub010] , when measured on K4 kissing-loop RNA reporter, yielded apparent KD of K4 kissing-loop reporter of 112

Observed apparent KD of K4 kissing-loop reporter, K4 kissing-loop RNA reporter, AACUCUCAGACAUUUGAGUGAUGUUCAGGCCGAGGACCGGUACGGCCGCCACUCGGGUCUGAGAGAGGUUAUCAAAGAUAGCCAA [Omei KL Tryp A SS A v6] : 467

So the reported apparent KD of K4 kissing-loop reporter for CAAAUAUGCGGUAGGUUCAAGCGCUGGGAAGGAGCGCAGAUGACUGCAGGUAGGUCGCCCAGUGAUGUUGGGCUUUCCACCUAUU [Edbeaan] , on K4 kissing-loop RNA reporter, turned out to be 123

Tested on K4 kissing-loop RNA reporter, the item CUUGGUGGCUACAUCAGGAAUUGCGGCGGAAAGGAUAUUCAUUGGCGAAGAAGGUUCCAAGUGACGAGUGAUGUUCUUCGUAAGG [theeternabot_sameState_KL_FMN_A_13] showed apparent KD of K4 kissing-loop reporter equal to 422

Item: GGGCAUCUGGCUGAUACCAGUGAUAAAGGGUAAGAGACAGGGAGUGAUGUUCCCUUUAGCCACCCUUGGCAGCAGUUUAAGUUUG [Exclusion Theophylline B GF 17] | System: K4 kissing-loop RNA reporter | apparent KD of K4 kissing-loop reporter: 83.5

Query CUGGUUCAGUGAUGUUGGAAGGUUUAGGUGAAGGAUAUAUUGCAUAAUAGAAGGUCACGGCCAUGCAAUUAUUAACGUAGCCUGU [theeternabot_exclusion_KL_FMN_A_3] on K4 kissing-loop RNA reporter; apparent KD of K4 kissing-loop reporter returned: 279

Field apparent KD of K4 kissing-loop reporter (K4 kissing-loop RNA reporter), entry UGAUACCAGACGGCCGCCACUGGUGCAGUCAAAGACUGCUAAAACCAAAUCGUGGAGUGAUGUUCCAGGACCGGGUCUGGUAUCU [TrypBX 20 #SwitchBubble #Palindromic #StaticStem] : 451

Entry GGGAAGAAGGCGGCCGCCACUGCAGAAGAGACAGAGAGGGUAGAAGAGGAGUGAUGUUCCAAGAACAGGACCGGGCCAAGAAGGG [whbob_SS_Tryp_B_t30] : apparent KD of K4 kissing-loop reporter on K4 kissing-loop RNA reporter = 226

Noted apparent KD of K4 kissing-loop reporter for CUAUCCCGCCGUGUAUGUAGUAUACGGUGCCGAGGACCGGUACGGCCGCCACUCGAUAAGCUUUGUCGGAGUGAUGUUCCGACCG [Soleesen] , tested on K4 kissing-loop RNA reporter: 277

K4 kissing-loop RNA reporter assay, sequence UCUCUUCUCAGUGAUGUUGAGUAAUCGGAAGGAGCGCGUGAAAACGCAGGUAGGUCGCCGAUUUGUGAAGUAUCUUCGCAAGAGA [Arginine A K4 26] , recorded apparent KD of K4 kissing-loop reporter = 352
